Biological target: soluble guanylate cyclase (sGC), α1 and β1 subunits of guanylate cyclase expressed in Sf9 cells (Homo sapiens, UniProt Q02108+Q02153)
Construct: made in house; host or cells: Sf9 insect cells (baculovirus co-infection)
Sequence (Q02108 whole entry): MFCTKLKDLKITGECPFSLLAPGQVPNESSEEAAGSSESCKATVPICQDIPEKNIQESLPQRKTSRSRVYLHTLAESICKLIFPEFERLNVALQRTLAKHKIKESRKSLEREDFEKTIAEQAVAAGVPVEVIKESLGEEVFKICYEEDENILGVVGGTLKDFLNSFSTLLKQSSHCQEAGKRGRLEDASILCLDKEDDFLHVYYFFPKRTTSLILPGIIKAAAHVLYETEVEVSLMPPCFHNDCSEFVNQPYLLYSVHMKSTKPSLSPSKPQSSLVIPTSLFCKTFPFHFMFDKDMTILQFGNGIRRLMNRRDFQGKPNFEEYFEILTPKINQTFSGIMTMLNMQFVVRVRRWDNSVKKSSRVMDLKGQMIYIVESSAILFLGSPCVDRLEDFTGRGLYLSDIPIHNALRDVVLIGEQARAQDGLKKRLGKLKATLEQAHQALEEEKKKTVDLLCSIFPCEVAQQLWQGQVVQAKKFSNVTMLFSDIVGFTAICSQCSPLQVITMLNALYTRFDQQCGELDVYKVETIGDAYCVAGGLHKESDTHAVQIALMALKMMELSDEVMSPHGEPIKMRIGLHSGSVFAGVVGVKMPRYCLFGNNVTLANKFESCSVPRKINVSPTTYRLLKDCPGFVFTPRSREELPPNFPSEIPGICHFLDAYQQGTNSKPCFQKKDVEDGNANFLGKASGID
Sequence (Q02153 whole entry): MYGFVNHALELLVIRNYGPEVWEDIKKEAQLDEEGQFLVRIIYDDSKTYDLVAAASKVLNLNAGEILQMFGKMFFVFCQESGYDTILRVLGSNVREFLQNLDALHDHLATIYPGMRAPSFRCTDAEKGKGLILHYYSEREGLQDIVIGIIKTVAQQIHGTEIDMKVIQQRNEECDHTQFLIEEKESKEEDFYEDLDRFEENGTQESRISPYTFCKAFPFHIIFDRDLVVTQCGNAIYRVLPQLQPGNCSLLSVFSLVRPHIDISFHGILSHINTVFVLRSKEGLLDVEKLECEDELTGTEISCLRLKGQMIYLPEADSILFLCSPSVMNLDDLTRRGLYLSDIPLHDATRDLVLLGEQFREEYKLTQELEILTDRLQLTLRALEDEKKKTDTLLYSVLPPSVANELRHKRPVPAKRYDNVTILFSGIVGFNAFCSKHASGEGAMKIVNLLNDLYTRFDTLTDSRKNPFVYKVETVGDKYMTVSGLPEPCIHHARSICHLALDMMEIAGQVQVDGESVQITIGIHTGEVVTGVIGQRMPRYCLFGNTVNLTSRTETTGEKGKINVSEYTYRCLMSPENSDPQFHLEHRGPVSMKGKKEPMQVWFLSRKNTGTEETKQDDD
Test: Guanylate cyclase assay (formation of cyclic GMP from GTP)
Assay type: biochemical
Settings: compound at 100 μM without SNP; normalized with the activity of 100 μM YC-1 (without SNP) as 100%; read-out: Mean basal efficacy of compound alone at 100 μM, [%]
Description: Sf9 cells were cultured in Sf-90011 medium supplemented with 10% (v/v) fetal calf serum at 28° C. to give a count of 6×10^5 cells/ml. […] Guanylate cyclase activity was measured by the formation of cyclic GMP from GTP in a total volume of 100 μl. […] Compounds of the present invention were tested at 100 μM with and without 1 μM sodium nitro prusside (SNP). […] Mean basal efficacy, in Table 1, was expressed as a percentage of 100 μM YC-1 (without SNP). […]
Property: Emax at 100 µM

The examples below pair each entry with its known result.
- Compound: "O=C(CCc1ccccc1Sc1ccc(Cl)cc1)NCCCCCO"
  Emax at 100 µM: "2%"
- Compound: "O=C(/C=C/c1ccccc1Sc1ccccc1)NC1CCCCC1O (stereo not drawn)"
  Emax at 100 µM: "54%"
- Compound: "O=C(/C=C/c1cccnc1Sc1ccc(Br)cc1)NC1CCC(O)CC1 (stereo not drawn)"
  Emax at 100 µM: "43%"
- Compound: "CC(CCCC(C)(C)O)NC(=O)CCc1ccccc1Sc1ccc(Cl)cc1 (stereo not drawn)"
  Emax at 100 µM: "9%"
- Compound: "Cc1ccc(Sc2ccccc2/C=C/C(=O)NCCCCO)cc1"
  Emax at 100 µM: "66%"
- Compound: "CC(C)CCSc1ccccc1/C=C/C(=O)N1CCCC(O)C1 (stereo not drawn)"
  Emax at 100 µM: "103%"

Hi there! I need Emax at 100 µM for each item below, if you can.
1. CC(C)CCSc1ccccc1/C=C/C(=O)NCCCCO
2. O=C(/C=C/c1cccnc1Sc1ccc(Cl)cc1)NC1CCC(O)CC1 (stereo not drawn)

Marked response:
["215%", "11%"]

For every item below, please supply its Emax at 100 µM.
1. COc1ccc(Sc2ccccc2/C=C/C(=O)NC2CCC(O)CC2)cc1 (stereo not drawn)
2. Cc1ccc(Sc2ccccc2/C=C/C(=O)NC(C)CCCC(C)(C)O)c(C)c1 (stereo not drawn)
3. CC(CC(=O)N(C)C1CCN(C)CC1)c1ccccc1Sc1ccc(Cl)cc1 (stereo not drawn)
4. O=C(/C=C/c1ccccc1Sc1ccc(Cl)cc1)NCCCCCO
5. COc1ccc(Sc2ccccc2/C=C/C(=O)NC2CCCCC2O)cc1 (stereo not drawn)
6. O=C(CCc1cccc(F)c1Sc1ccc(Cl)cc1)NCCCCO

Marked response:
1. 119%
2. 4%
3. 0%
4. 49%
5. 15%
6. 19%

# map each compound to its Emax at 100 µM
1. CNCCCCCNC(=O)CCc1ccccc1Sc1ccc(Cl)cc1
2. CC(CC(=O)NCCc1ccncc1)c1ccccc1Sc1ccc(Cl)cc1 (stereo not drawn)
3. CC(CCCC(C)(C)O)NC(=O)/C=C/c1ccccc1Sc1ccc(Cl)cc1 (stereo not drawn)

Marked response:
30%
1%
93%

State the recorded Emax at 100 µM for every item in the following list.
1. Cc1ccc(Sc2ccccc2CCC(=O)NCCCCO)cc1
2. CC(C)CCSc1ccccc1/C=C/C(=O)N1CCC(C(N)=O)CC1
3. COc1ccc(Sc2ccc(C)cc2)c(/C=C/C(=O)NC2CCC(O)CC2)c1 (stereo not drawn)
4. O=C(/C=C/c1ccccc1Sc1ccc(Cl)cc1)NC1CCC(O)CC1 (stereo not drawn)
5. O=C(/C=C/c1ccccc1SC1CCCCC1)NC1CCC(O)CC1 (stereo not drawn)

Marked response:
["14%", "125%", "36%", "66%", "353%"]

Each compound below has a recorded value; state its Emax at 100 µM.
1. CCCCNC(=O)/C=C/c1ccccc1Sc1ccc(Cl)cc1
2. O=C(/C=C/c1cccnc1Sc1ccccc1Cl)NC1CCC(O)CC1 (stereo not drawn)
3. CC(C)CSc1ccccc1/C=C/C(=O)NC1CCCCC1O (stereo not drawn)
4. O=C(/C=C/c1ccccc1Sc1ccc(Cl)cc1)NCCCCO

Marked response:
1. 7%
2. 90%
3. 45%
4. 113%

Would you be so kind as to report Emax at 100 µM for each listed record?
1. COc1ccc(Sc2ccccc2/C=C/C(=O)NCCCCO)cc1
2. CC(C)CCSc1ccccc1/C=C/C(=O)N1CCC(O)CC1

Marked response:
54%
115%

List the reported Emax at 100 µM of each compound below.
1. CCCCCSc1ccccc1/C=C/C(=O)NC1CCC(O)CC1 (stereo not drawn)
2. CS(=O)(=O)NCCCCNC(=O)CCc1ccccc1Sc1ccc(Cl)cc1
3. O=C(/C=C/c1ccccc1Sc1ccc(Cl)cc1Cl)NCCCCO
4. CC(O)CCNC(=O)/C=C/c1ccccc1Sc1ccc(Cl)cc1 (stereo not drawn)
5. CC(O)CCCNC(=O)CCc1ccccc1Sc1ccc(Cl)cc1 (stereo not drawn)

Marked response:
1. 115%
2. 2%
3. 69%
4. 60%
5. 4%

For each listed entry, give its Emax at 100 µM.
1. O=C(CCc1ccccc1Sc1ccc(Cl)cc1)NC1CCC(O)CC1 (stereo not drawn)
2. CC(C)Sc1ccccc1/C=C/C(=O)NC1CCC(O)CC1 (stereo not drawn)
3. CNCCCCNC(=O)CCc1ccccc1Sc1ccc(Cl)cc1
4. COc1cccc(Sc2ccccc2/C=C/C(=O)NC2CCCCC2O)c1 (stereo not drawn)
5. O=C(/C=C/c1c(F)cccc1Sc1ccc(Cl)cc1)NCCCCO

Marked response:
1%
4%
4%
20%
5%

Exam item: Fill in: Emax at 100 µM of CC(C)CCSc1ccccc1/C=C/C(=O)NC1CCCCC1O (stereo not drawn) is ___
Marked response: 169%
